Could you please report measured 2 al/1 al for the items listed next?
system: CYP2D6; conditions: human
Give bare numbers.

Completed entries (count: 5):
[
  {
    "compound": "CNCCCC12CCC(c3ccccc31)c1ccccc12 [maprotiline]",
    "target": "CYP2D6",
    "measurement_name": "2 al/1 al",
    "reading": 2.02
  },
  {
    "compound": "CCc1nn(CCCN2CCN(c3cccc(Cl)c3)CC2)c(=O)n1CCOc1ccccc1 [nefazodone]",
    "target": "CYP2D6",
    "measurement_name": "2 al/1 al",
    "reading": 1.88
  },
  {
    "compound": "OCCN1CCN(CC/C=C2/c3ccccc3Sc3ccc(Cl)cc32)CC1 [zuclopenthixol]",
    "target": "CYP2D6",
    "measurement_name": "2 al/1 al",
    "reading": 2.04
  },
  {
    "compound": "CN1CCN2c3ccccc3Cc3ccccc3C2C1 (stereo not drawn) [mianserin]",
    "target": "CYP2D6",
    "measurement_name": "2 al/1 al",
    "reading": 1.67
  },
  {
    "compound": "O=C(CCCN1CCC(O)(c2ccc(Cl)cc2)CC1)c1ccc(F)cc1 [haloperidol]",
    "target": "CYP2D6",
    "measurement_name": "2 al/1 al",
    "reading": 3.10
  }
]

2 al/1 al reported for this compound CNCCCN1c2ccccc2CCc2ccccc21 [desipramine] : 1.98

====

test system: CYP2C9; test: dosing recommendation per CYP2C9 metabolizer subgroup as percentage of usual population dose (Equations 4-6); parameters: species or system human; details: CYP2C9 poor metabolizers; percent of usual dose
Could you please report measured PM (%) dosing recommendation for the items listed next?
Give bare numbers, in %.

[
  {
    "compound": "Cc1ccc(-c2cc(C(F)(F)F)nn2-c2ccc(S(N)(=O)=O)cc2)cc1",
    "measurement_name": "PM (%) dosing recommendation",
    "reading": 35
  },
  {
    "compound": "CCCCc1nc(Cl)c(CO)n1Cc1ccc(-c2ccccc2-c2nn[nH]n2)cc1",
    "measurement_name": "PM (%) dosing recommendation",
    "reading": 20
  },
  {
    "compound": "CCCNC(=O)NS(=O)(=O)c1ccc(Cl)cc1",
    "measurement_name": "PM (%) dosing recommendation",
    "reading": 20
  },
  {
    "compound": "CC(C)n1c(/C=C/[C@@H](O)C[C@@H](O)CC(=O)O)c(-c2ccc(F)cc2)c2ccccc21 (racemic)",
    "measurement_name": "PM (%) dosing recommendation",
    "reading": 35
  }
]

# per-item lookup of PM (%) dosing recommendation; items listed below
1. CCC1=C(C)CN(C(=O)NCCc2ccc(S(=O)(=O)NC(=O)N[C@H]3CC[C@H](C)CC3)cc2)C1=O
2. O=C1NC(=O)C(c2ccccc2)(c2ccccc2)N1 [Dilantin]
3. CC(=O)CC(c1ccccc1)c1c(O)c2ccccc2oc1=O (stereo not shown)

[20, 40, 20]

====

tested on: CYP2D6; conditions: CYP2D6; (DREM%-DRIM%)/DREM%
measurement_name: 1 al (effect of 1 non-functional allele)
Give bare numbers.

Completed entries (count: 3):
[
  {
    "compound": "O=C1CCc2ccc(OCCCCN3CCN(c4cccc(Cl)c4Cl)CC3)cc2N1",
    "measurement_name": "1 al (effect of 1 non-functional allele)",
    "reading": 0.19
  },
  {
    "compound": "OCCN1CCN(CCCN2c3ccccc3Sc3ccc(Cl)cc32)CC1",
    "measurement_name": "1 al (effect of 1 non-functional allele)",
    "reading": 0.38
  },
  {
    "compound": "COc1ccc(C(CN(C)C)C2(O)CCCCC2)cc1 (stereo not shown)",
    "measurement_name": "1 al (effect of 1 non-functional allele)",
    "reading": 0.21
  }
]

We next turn to a different compound, shown below.
1 al (effect of 1 non-functional allele) reported for this compound Fc1ccc([C@@H]2CCNC[C@H]2COc2ccc3c(c2)OCO3)cc1 : 0.21
